system tested: menin/MLL (terbium chelate-labeled menin, FITC-MBM1 peptide) (Homo sapiens, UniProt O00255, T541A)
Construct: Menin (a.a 1-610-6xhis tag)
Sequence (O00255 with tags, fused parts or gaps T541A): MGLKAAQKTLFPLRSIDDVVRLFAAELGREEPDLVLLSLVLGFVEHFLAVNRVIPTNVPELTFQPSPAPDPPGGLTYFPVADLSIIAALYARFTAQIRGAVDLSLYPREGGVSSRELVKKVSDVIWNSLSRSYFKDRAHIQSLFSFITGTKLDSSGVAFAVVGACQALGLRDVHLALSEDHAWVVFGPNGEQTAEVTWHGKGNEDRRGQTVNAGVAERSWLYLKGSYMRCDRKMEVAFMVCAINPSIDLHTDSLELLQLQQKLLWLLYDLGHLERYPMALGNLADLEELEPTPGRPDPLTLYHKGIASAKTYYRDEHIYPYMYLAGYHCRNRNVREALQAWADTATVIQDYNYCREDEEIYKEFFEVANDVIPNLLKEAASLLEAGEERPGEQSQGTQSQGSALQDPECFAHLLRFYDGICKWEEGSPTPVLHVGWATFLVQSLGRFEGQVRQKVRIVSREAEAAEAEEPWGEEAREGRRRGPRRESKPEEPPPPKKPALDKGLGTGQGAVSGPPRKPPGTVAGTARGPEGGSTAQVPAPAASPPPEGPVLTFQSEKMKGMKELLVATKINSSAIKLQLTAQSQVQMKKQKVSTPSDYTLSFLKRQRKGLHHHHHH
assay protocol: Menin/MLL homogenous time-resolved fluorescence (HTRF) assay
stated conditions: 30 min incubation
pIC50: −log10 of the molar value.
recorded endpoint: pIC50

compound | reported
CC(C)[C@H]([C@H]1C[C@H](N2CCNC(=O)C2)C1)N1CC2(CCN(c3ncnnc3Oc3ccc(F)cc3-c3cncnc3C3CC3)C2)C1 (single isomer, unassigned) | 8.68

[a] Cc1ncc(-c2cc(F)ccc2Oc2nncnc2N2CCC3(C2)CN([C@@H](C(C)C)[C@H]2C[C@@H](N4CC[C@H](NC(=O)C5CC5)C4)C2)C3)c(C2CC2)n1
[b] CC(C)C([C@H]1C[C@@H](N)C1)N1CC2(CCN(c3ncnnc3Oc3ccc(F)cc3-c3cncnc3C3CC3)C2)C1 (single isomer, unassigned) [Compound 1a]
From the items above, decide which of a and b has the lower pIC50 reading. # respond with the chosen item's label
b
